read-out: urokinase plasminogen activator (uPA), PLAU (gene 5328); experiment: BSK_BE3C_uPA: BioMAP Diversity Plus: BE3C Assay for urokinase plasminogen activator (uPA) Biomarker Activity (AID 2283038); conditions: primary human bronchial epithelial cells; actives raise or lower the signal;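 on Outcome: uPA protein level quantified by ELISA in cell cultures; uPA read one day after compound addition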
Activity calls are given as the source filed them. How the source made its calls: active means hit-call score of the fitted dose curve at least 0.9, where 1 is the maximum; inactive means score below 0.9.
Outcome codes: active, inactive

INSERT INTO assay_data (compound, label) VALUES
  ('O=c1[nH]sc2ccccc12', 'active'),
  ('CCCCCCCCOC(=O)c1cc(O)c(O)c(O)c1', 'active'),
  ('CC/C(=C(/CC)c1ccc(O)cc1)c1ccc(O)cc1', 'active'),
  ('CC(O)CC(C)(C)O (stereo not drawn)', 'inactive'),
  ('CCN(Cc1cccc(S(=O)(=O)O)c1)c1ccc(C(=C2C=CC(=[N+](CC)Cc3cccc(S(=O)(=O)O)c3)C=C2)c2ccccc2S(=O)(=O)[O-])cc1', 'inactive'),
  ('COc1cccc([C@H](O)C2CCN(CCc3ccc(F)cc3)CC2)c1OC', 'inactive'),
  ('CCN(Cc1cccnc1)C(=O)c1cccc(Cl)c1[C@]1(C)C(=O)N(Cc2ccc(OC)cc2OC)c2ccc(Cl)cc21', 'active'),
  ('c1ccc(C[n+]2cccc3ccccc32)cc1', 'inactive'),
  ('CN1C(=O)N(c2ccccc2Br)Cc2cnc(Nc3ccc4c(c3)OCC(CO)O4)nc21 (stereo not drawn)', 'active'),
  ('CN(C)C(=O)C1(N2CCCCC2)CCN(CC[C@@]2(c3ccc(Cl)c(Cl)c3)CN(C(=O)c3ccccc3)CCO2)CC1', 'active'),
  ('c1ccc2ccccc2c1', 'inactive'),
  ('CC1(C)NC(=O)N(c2ccc([N+](=O)[O-])c(C(F)(F)F)c2)C1=O', 'inactive'),
  ('Oc1ccc2ccccc2c1', 'inactive'),
  ('CC[C@H](NC(=O)c1cc(F)ccc1NS(=O)(=O)c1cccc2cccnc12)c1ccccc1', 'inactive'),
  ('CCCCCCCC[Si](OCC)(OCC)OCC', 'inactive'),
  ('O=C1O[C@H]([C@@H](O)CO)C(O)=C1O', 'inactive'),
  ('Cc1cn([C@H]2C[C@H](N=[N+]=[N-])[C@@H](CO)O2)c(=O)[nH]c1=O', 'inactive'),
  ('C[C@]12CC[C@@H]3c4ccc(O)cc4CC[C@H]3[C@@H]1CCC2=O', 'inactive'),
  ('CCCCCCCCCCCO', 'inactive'),
  ('CCN(CC)C(=O)c1cc(S(=O)(=O)Cc2ccccc2)c(N2CCC(c3ccccc3)CC2)cc1N(CC)CCN(C)C', 'active'),
  ('O=CCCCC=O', 'inactive'),
  ('CCCC(=O)OCCC(C)C', 'inactive'),
  ('CC(C)(C)c1cc(/C=C2\SC(N)=NC2=O)cc(C(C)(C)C)c1O', 'active');

---

target: human Adrenergic, Alpha 2A Receptor (Adra2A), ADRA2A (gene 150) (UniProt P08913); test: NVS_GPCR_hAdra2A: NovaScreen (NVS) G Protein-Coupled Receptor Assay for human Adrenergic, Alpha 2A Receptor (Adra2A) (AID 2283257)
Sequence (P08913 whole entry, looked up): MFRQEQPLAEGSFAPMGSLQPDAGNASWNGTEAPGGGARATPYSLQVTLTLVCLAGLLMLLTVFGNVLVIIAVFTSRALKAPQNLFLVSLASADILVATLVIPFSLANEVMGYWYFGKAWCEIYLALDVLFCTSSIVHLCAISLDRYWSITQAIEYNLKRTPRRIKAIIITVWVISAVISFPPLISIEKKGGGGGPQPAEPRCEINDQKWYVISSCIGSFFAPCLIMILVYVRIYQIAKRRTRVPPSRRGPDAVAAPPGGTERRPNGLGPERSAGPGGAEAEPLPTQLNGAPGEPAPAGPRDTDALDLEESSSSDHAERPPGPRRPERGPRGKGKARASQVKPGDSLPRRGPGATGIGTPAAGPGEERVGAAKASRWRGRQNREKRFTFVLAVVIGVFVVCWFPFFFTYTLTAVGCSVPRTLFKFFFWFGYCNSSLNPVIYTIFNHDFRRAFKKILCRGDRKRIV
Records with an inconclusive call do not appear. The source made the active and inactive calls. Rule for the calls: active = hit-call score of the fitted dose curve at least 0.9, where 1 is the maximum; inconclusive = response in the unintended direction; inactive = score below 0.9.
Outcome codes: active, inactive

INSERT INTO measurements (smiles_data, label) VALUES
  ('CN(C)C(=O)C1(N2CCCCC2)CCN(CC[C@@]2(c3ccc(Cl)c(Cl)c3)CN(C(=O)c3ccccc3)CCO2)CC1', 'active'),
  ('CCOC(=O)O[C@H](C)OC(=O)c1ccc2c(c1)cc(C(=O)NC1CCN(C(C)C)CC1)n2Cc1cc(-c2ccc(Cl)s2)on1', 'active'),
  ('CN(C)c1ccc(C(=C2C=CC(=[N+](C)C)C=C2)c2ccc(N(C)C)cc2)cc1', 'active'),
  ('COc1ccc2cc(S(=O)(=O)N[C@H](CC(=O)N[C@H](Cc3ccc(CN4[C@H](C)CCC[C@@H]4C)cc3)C(=O)N(C)C(C)C)c3ccc4c(c3)OCO4)ccc2c1', 'active'),
  ('CCN(Cc1cccnc1)C(=O)c1cccc(Cl)c1[C@]1(C)C(=O)N(Cc2ccc(OC)cc2OC)c2ccc(Cl)cc21', 'inactive'),
  ('Clc1cc(Cl)c2c(c1)N=C1CCCCCN1C2', 'active');
